The reported measurements were obtained from ChEMBL document CHEMBL1124351.

system: Progesterone receptor (Mesocricetus auratus); experiment: Percent inhibition of [3H]- progesterone binding to Syrian golden hamster uterine cytosol progesterone receptor, at 10e-5 M compound concentration; details: at 10 µM
Please mark fulfilled if the recorded inhibition is equal to or greater than 20%, and not fulfilled if it falls below.

INSERT INTO assay_data (compound, tested_on, qualitative_label) VALUES
  ('COC(=O)C1=C(C)N=C(C)/C(=C(/O)OC)C1c1cc2ccccc2nc1Cl (stereo not given)', 'Progesterone receptor (Mesocricetus auratus)', 'not fulfilled'),
  ('COC(=O)C1=C(C)N=C(C)/C(=C(\O)OC)C1c1cc2cc(-c3c(C)oc(C)c3C(=O)OC)ccc2nc1Cl (stereo not given)', 'Progesterone receptor (Mesocricetus auratus)', 'not fulfilled'),
  ('COC(=O)C1=C(C)N=C(C)/C(=C(/O)OC)C1c1ccc2nc3n(c2c1)C(=O)c1ccccc1-3 (stereo not given)', 'Progesterone receptor (Mesocricetus auratus)', 'not fulfilled'),
  ('COC(=O)C1=C(C)N=C(C)/C(=C(/O)OC)C1c1ccc(C=O)cc1 (stereo not given)', 'Progesterone receptor (Mesocricetus auratus)', 'not fulfilled'),
  ('COC(=O)C1=C(C)N=C(C)/C(=C(/O)OC)C1c1ccc(C2C(C(=O)OC)=C(C)N=C(C)/C2=C(/O)OC)cc1 (stereo not given)', 'Progesterone receptor (Mesocricetus auratus)', 'fulfilled');

Exam item: decide whether the reported inhibition for COC(=O)C1=C(C)N=C(C)/C(=C(/O)OC)C1c1ccc2nc(-c3ccc4c(c3)OCO4)n(Cc3ccc4c(c3)OCO4)c2c1 (stereo not given) is at least 20%.
not fulfilled

Repeat with COC(=O)C1=C(C)N=C(C)/C(=C(\O)OC)C1c1cc(C(=O)c2ccc(C)cc2)c(OC)cc1OC (stereo not given)
not fulfilled

###

test system: Progesterone receptor (Mesocricetus auratus); assay: Percent inhibition of [3H]- progesterone binding to Syrian golden hamster uterine cytosol progesterone receptor, at 10e-5 M compound concentration; settings: at 10 µM
Measurement Name: inhibition (%)
Quick reminder: number only, in %, skip the unit.

Known inhibition results, listed for orientation:
INSERT INTO results (molecule, measurement_name, reported_result) VALUES
  ('COC(=O)C1=C(C)N=C(C)/C(=C(/O)OC)C1c1ccc(Cl)c([N+](=O)[O-])c1 (stereo not drawn)', 'inhibition', 24),
  ('COC(=O)C1=C(C)N=C(C)/C(=C(/O)OC)C1c1ccc2nc(-c3ccc(O)c(OC)c3)n(Cc3ccc(O)c(OC)c3)c2c1 (stereo not drawn)', 'inhibition', 18);

Suppose we examine the molecule COC(=O)C1=C(C)N=C(C)/C(=C(/O)OC)C1c1ccc2[nH]nnc2c1 (stereo not drawn) ; what inhibition value has been reported?
26
